From: the C3SDB collision cross section collection

Conditions: [M+H]+; instrument: TW; Major Mix IMS/Tof Calibration Kit (Waters)
Lab note: compare collision cross section (N2) against 200 Å². Equal or greater, write criterion met. Smaller, write criterion not met.

Check out these entries, answers already filled in.
{"compound": "O=C1NCCN1CCN1CCC(c2cn(-c3ccc(F)cc3)c3ccc(Cl)cc23)CC1 [Sertindol]", "answerLabel": "criterion met"}
{"compound": "COc1cccc([C@@]2(O)CCCC[C@@H]2CN(C)C)c1 [Tramadol]", "answerLabel": "criterion not met"}
{"compound": "CC(C)(C)NCC(O)c1cc(Cl)c(N)c(Cl)c1 (stereo not drawn) [Clenbuterol]", "answerLabel": "criterion not met"}

Textbook exercise: given the entry O=C1CC[C@@]2(O)[C@H]3Cc4ccc(O)c5c4[C@@]2(CCN3CC2CC2)[C@H]1O5 [Naltrexone] , state whether its collision cross section (N2) is greater than or equal to 200 Å².
criterion not met

Hi team, for CN1CCC(=C2c3ccccc3CCc3sccc32)CC1 [Pizotifen] , is the recorded collision cross section (N2) at or above 200 Å²?
criterion not met

I'd appreciate it if you could say whether CN(C)CCC=C1c2ccccc2C=Cc2ccccc21 [Cyclobenzaprine] has collision cross section (N2) at least equal to 200 Å².
criterion not met

Identify whether the reported collision cross section (N2) of the following compound is 200 Å² or greater: O=C1CN=C(c2ccccc2Cl)c2cc([N+](=O)[O-])ccc2N1 [Clonazepam]
criterion not met

Given COC(=O)C1=C(C)NC(C)=C(C(=O)OCCN(C)Cc2ccccc2)C1c1cccc([N+](=O)[O-])c1 (stereo not drawn) [Nicardipine] , state whether its collision cross section (N2) is at least 200 Å².
criterion met

----------
Recorded collision cross section (N2) values for a group of compounds are listed next.
Conditions: [M+H]+; instrument: TW; Major Mix IMS/Tof Calibration Kit (Waters)
Please give a number only; it is taken to be in Å².

These recorded examples may help you get a feel for the data.
{"compound": "CC(CN1c2ccccc2Sc2ccccc21)N(C)C (centres undefined)", "uom": "Å²", "dataValue": 163.7}
{"compound": "COc1cc2c(cc1OC)C1CC(=O)C(CC(C)C)CN1CC2 (centres undefined)", "uom": "Å²", "dataValue": 182.6}

Lab note: CNCCCC1(C2=CC=CC=C32)CC[C@H]3C4=CC=CC=C14 gave collision cross section (N2) of 164.2

----------
Conditions: [M+H]+; instrument: TW; Major Mix IMS/Tof Calibration Kit (Waters)
measurementType: collision cross section (N2) (Å²)
// units = Å²; emit number, no label

The examples below pair each entry with its known result.
{"compound": "NC(=O)c1cn(Cc2c(F)cccc2F)nn1 [Rufinamide]", "collision cross section (N2), Å²": 148.6}
{"compound": "CCC(=O)O[C@](Cc1ccccc1)(c1ccccc1)[C@H](C)CN(C)C [Dextropropoxyphene]", "collision cross section (N2), Å²": 180.7}
{"compound": "COc1ccc2c(c1)[C@]13CCCC[C@@H]1[C@H](C2)N(C)CC3 [Dextromethorphan]", "collision cross section (N2), Å²": 166.3}

CNS(=O)(=O)CCc1ccc2[nH]cc(C3CCN(C)CC3)c2c1 [Naratriptan] has a reported collision cross section (N2) of 174.3

Lab book: collision cross section (N2) of CN1[C@@H]2CC[C@H]1C[C@@H](OC(=O)C(CO)c1ccccc1)C2 (some centres undefined) [Atropine] noted as 171.5

Memo: CNC[C@@H](C)CN1c2ccccc2S(=O)c2ccc(OC)cc21 (some centres undefined) [Levomepromazine-M N-desmethyl sulfoxide] , reported collision cross section (N2): 172.9

# collision cross section (N2) (compound: CCNC(C)C(=O)c1ccccc1 (centres undefined) [Ethcathinone] ) is 139.2

Record CCC(=O)C1(c2cccc(O)c2)CCN(C)CC1 [Ketobemidone] . Reported collision cross section (N2): 159.7

The recorded collision cross section (N2) for entry CNCCCN1c2ccccc2CCc2ccccc21 [Imipramine-M Nor] equals 163.3
